Target: T1, IscR-C92A/C98A/C104A (clusterless) (Escherichia coli, UniProt P0AGK8 1-162, C92A;C98A;C104A)
T1 sequence: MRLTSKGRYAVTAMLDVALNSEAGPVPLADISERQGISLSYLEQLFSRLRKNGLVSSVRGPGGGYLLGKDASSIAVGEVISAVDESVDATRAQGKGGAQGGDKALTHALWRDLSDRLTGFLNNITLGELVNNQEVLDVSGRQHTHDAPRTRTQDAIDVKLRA
Test: competition
pIC50: −log10 of the molar value.
# pIC50 per entry

# Binder, pIC50
records = [
    ("hya -54,-48,-45,-37 (dsDNA) DNA 1: ATATATCCAGACTGTTTGTAATGTTTTGTG DNA 2: CACAAAACATTACAAACAGTCTGGATATAT", 7.10),
    ("hya -36(T to C) (dsDNA) DNA 1: ATAAATCCACACAGTTTGTATCGTTTTGTG DNA 2: CACAAAACGATACAAACTGTGTGGATTTAT", 6.87),
    ("hya -42 (dsDNA) DNA 1: ATAAATCCACACAGTATGTATTGTTTTGTG DNA 2: CACAAAACAATACATACTGTGTGGATTTAT", 7.14),
    ("hya -44,-43 (dsDNA) DNA 1: ATAAATCCACACATGTTGTATTGTTTTGTG DNA 2: CACAAAACAATACAACATGTGTGGATTTAT", 7.05),
]
